- PROTOCOL TEXT: self-splicing fitness, log relative to wild type (ln ratio); higher = more splicing; Tetrahymena group I intron in knt gene, E. coli kanamycin selection, DiMSum; sequences stand for … in CUCUCU…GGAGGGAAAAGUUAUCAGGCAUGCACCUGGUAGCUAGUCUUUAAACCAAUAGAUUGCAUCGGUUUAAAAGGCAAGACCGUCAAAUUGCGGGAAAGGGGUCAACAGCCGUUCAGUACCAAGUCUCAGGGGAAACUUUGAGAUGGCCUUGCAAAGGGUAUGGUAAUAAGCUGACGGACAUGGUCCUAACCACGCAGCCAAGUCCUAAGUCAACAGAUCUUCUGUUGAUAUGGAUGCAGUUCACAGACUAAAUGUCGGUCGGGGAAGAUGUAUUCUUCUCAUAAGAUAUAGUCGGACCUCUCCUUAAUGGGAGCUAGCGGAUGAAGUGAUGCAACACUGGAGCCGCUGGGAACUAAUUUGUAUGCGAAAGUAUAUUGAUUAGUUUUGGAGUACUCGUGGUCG;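 note: selection with 25 µg/mL kanamycin versus none on LB agar overnight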
- TEST CONDITIONS: 30 °C
self-splicing fitness (ln) values, listed per item

>  <ORDERED RESIDUES>
CCCCAGCAAUAUUACGUGGG

>  <self-splicing fitness (ln)>
-3.83

$$$$
>  <ORDERED RESIDUES>
GUGCAGCAAUAUUACGCGCA

>  <self-splicing fitness (ln)>
-2.62

$$$$
>  <ORDERED RESIDUES>
AGUAAGCAAUAUUACGGGUA

>  <self-splicing fitness (ln)>
-2.7

$$$$
>  <ORDERED RESIDUES>
AGGUAGCAAUAUUACGGAGU

>  <self-splicing fitness (ln)>
-3.49

$$$$
>  <ORDERED RESIDUES>
AGGCAGCAAUAUUACGACUU

>  <self-splicing fitness (ln)>
-0.0645

$$$$
>  <ORDERED RESIDUES>
CGCUAGCAAUAUUACGUUCG

>  <self-splicing fitness (ln)>
-1.46

$$$$
>  <ORDERED RESIDUES>
GCUCAGCAAUAUUACGCAUA

>  <self-splicing fitness (ln)>
-1.48

$$$$
>  <ORDERED RESIDUES>
ACGCAGCAAUAUUACGGUCU

>  <self-splicing fitness (ln)>
-0.587

$$$$
>  <ORDERED RESIDUES>
CCGUAGCAAUAUUACGGACU

>  <self-splicing fitness (ln)>
-4.02

$$$$
>  <ORDERED RESIDUES>
UCCGAGCAAUAUUACGCAUU

>  <self-splicing fitness (ln)>
-2.2

$$$$
>  <ORDERED RESIDUES>
CCAAAGCAAUAUUACGAUCA

>  <self-splicing fitness (ln)>
-2.94

$$$$
>  <ORDERED RESIDUES>
AAACAGCAAUAUUACGUGUU

>  <self-splicing fitness (ln)>
-4.29

$$$$
>  <ORDERED RESIDUES>
AAGUAGCAAUAUUACGUGAA

>  <self-splicing fitness (ln)>
-2.36

$$$$
>  <ORDERED RESIDUES>
GUGAAGCAAUAUUACGCGGG

>  <self-splicing fitness (ln)>
-2.8

$$$$
>  <ORDERED RESIDUES>
AAGAAGCAAUAUUACGUCCA

>  <self-splicing fitness (ln)>
-0.641

$$$$
>  <ORDERED RESIDUES>
GGUCAGCAAUAUUACGAUUA

>  <self-splicing fitness (ln)>
-0.0947

$$$$
>  <ORDERED RESIDUES>
CCCGAGCAAUAUUACGUAGG

>  <self-splicing fitness (ln)>
-2.04

$$$$
>  <ORDERED RESIDUES>
AGGUAGCAAUAUUACGCUGA

>  <self-splicing fitness (ln)>
-2.03

$$$$
>  <ORDERED RESIDUES>
CAUGAGCAAUAUUACGAAUG

>  <self-splicing fitness (ln)>
-3.67

$$$$
>  <ORDERED RESIDUES>
CGGAAGCAAUAUUACGGGUG

>  <self-splicing fitness (ln)>
-0.485

$$$$
>  <ORDERED RESIDUES>
UGAAAGCAAUAUUACGUGCG

>  <self-splicing fitness (ln)>
-0.35

$$$$
>  <ORDERED RESIDUES>
GGUCAGCAAUAUUACGUGCG

>  <self-splicing fitness (ln)>
0.397

$$$$
>  <ORDERED RESIDUES>
UACUAGCAAUAUUACGUCUU

>  <self-splicing fitness (ln)>
-2.11

$$$$
>  <ORDERED RESIDUES>
CGUCAGCAAUAUUACGUAUG

>  <self-splicing fitness (ln)>
-0.163

$$$$
>  <ORDERED RESIDUES>
UACUAGCAAUAUUACGUGCG

>  <self-splicing fitness (ln)>
-0.684

$$$$
>  <ORDERED RESIDUES>
AAGAAGCAAUAUUACGGGAG

>  <self-splicing fitness (ln)>
-2.62

$$$$
>  <ORDERED RESIDUES>
AGCUAGCAAUAUUACGAUAA

>  <self-splicing fitness (ln)>
-2.14

$$$$
>  <ORDERED RESIDUES>
CUGCAGCAAUAUUACGUUAC

>  <self-splicing fitness (ln)>
-4.46

$$$$
>  <ORDERED RESIDUES>
AGUCAGCAAUAUUACGGUAA

>  <self-splicing fitness (ln)>
-2.02

$$$$
>  <ORDERED RESIDUES>
CGUGAGCAAUAUUACGCUGG

>  <self-splicing fitness (ln)>
-1.7

$$$$
>  <ORDERED RESIDUES>
UCCAAGCAAUAUUACGACUC

>  <self-splicing fitness (ln)>
-3.4

$$$$
>  <ORDERED RESIDUES>
CCAUAGCAAUAUUACGCGAG

>  <self-splicing fitness (ln)>
-2.77

$$$$
>  <ORDERED RESIDUES>
UUGGAGCAAUAUUACGUUGU

>  <self-splicing fitness (ln)>
-4.09

$$$$
>  <ORDERED RESIDUES>
CGUCAGCAAUAUUACGAAAU

>  <self-splicing fitness (ln)>
-3.61

$$$$
>  <ORDERED RESIDUES>
UAUAAGCAAUAUUACGAUGG

>  <self-splicing fitness (ln)>
-1.62

$$$$
>  <ORDERED RESIDUES>
UCCAAGCAAUAUUACGGUAG

>  <self-splicing fitness (ln)>
-4.7

$$$$
>  <ORDERED RESIDUES>
AUCUAGCAAUAUUACGGUAU

>  <self-splicing fitness (ln)>
-1.54

$$$$
>  <ORDERED RESIDUES>
AGAUAGCAAUAUUACGGUUG

>  <self-splicing fitness (ln)>
-3.03

$$$$
>  <ORDERED RESIDUES>
GUUCAGCAAUAUUACGGCUG

>  <self-splicing fitness (ln)>
-3.59

$$$$
>  <ORDERED RESIDUES>
CCAUAGCAAUAUUACGGCUG

>  <self-splicing fitness (ln)>
-3.05

$$$$
>  <ORDERED RESIDUES>
GCAGAGCAAUAUUACGCCUC

>  <self-splicing fitness (ln)>
-2.46

$$$$
>  <ORDERED RESIDUES>
CGCGAGCAAUAUUACGCAUA

>  <self-splicing fitness (ln)>
-1.87

$$$$
>  <ORDERED RESIDUES>
GCACAGCAAUAUUACGAUGU

>  <self-splicing fitness (ln)>
-2.05

$$$$
>  <ORDERED RESIDUES>
AUUUAGCAAUAUUACGUCAU

>  <self-splicing fitness (ln)>
-1.76

$$$$
>  <ORDERED RESIDUES>
CUUAAGCAAUAUUACGGCGU

>  <self-splicing fitness (ln)>
-3.35

$$$$
>  <ORDERED RESIDUES>
CAGCAGCAAUAUUACGUCGU

>  <self-splicing fitness (ln)>
-3.42

$$$$
>  <ORDERED RESIDUES>
UCGCAGCAAUAUUACGUUAU

>  <self-splicing fitness (ln)>
-3.3

$$$$
>  <ORDERED RESIDUES>
AAGCAGCAAUAUUACGUGUG

>  <self-splicing fitness (ln)>
-2.67

$$$$
>  <ORDERED RESIDUES>
GUUGAGCAAUAUUACGUUGA

>  <self-splicing fitness (ln)>
-3.13

$$$$
>  <ORDERED RESIDUES>
GAUCAGCAAUAUUACGAGUA

>  <self-splicing fitness (ln)>
-1.2

$$$$
>  <ORDERED RESIDUES>
CCCUAGCAAUAUUACGCUGG

>  <self-splicing fitness (ln)>
-4.39

$$$$
>  <ORDERED RESIDUES>
CAUAAGCAAUAUUACGUCCG

>  <self-splicing fitness (ln)>
-0.727

$$$$
>  <ORDERED RESIDUES>
AUUGAGCAAUAUUACGUCGU

>  <self-splicing fitness (ln)>
-1.59

$$$$
>  <ORDERED RESIDUES>
UCUGAGCAAUAUUACGCACC

>  <self-splicing fitness (ln)>
-3.59

$$$$
>  <ORDERED RESIDUES>
UUUUAGCAAUAUUACGGUGC

>  <self-splicing fitness (ln)>
-3.63

$$$$
>  <ORDERED RESIDUES>
AACCAGCAAUAUUACGGCAC

>  <self-splicing fitness (ln)>
-0.615

$$$$
>  <ORDERED RESIDUES>
UCUCAGCAAUAUUACGGGCG

>  <self-splicing fitness (ln)>
-0.717

$$$$
>  <ORDERED RESIDUES>
UCAGAGCAAUAUUACGUCGG

>  <self-splicing fitness (ln)>
-1.87

$$$$
>  <ORDERED RESIDUES>
CUUAAGCAAUAUUACGUCAU

>  <self-splicing fitness (ln)>
-4.2

$$$$
>  <ORDERED RESIDUES>
AACAAGCAAUAUUACGACCA

>  <self-splicing fitness (ln)>
-0.617

$$$$
>  <ORDERED RESIDUES>
GUAGAGCAAUAUUACGGUAC

>  <self-splicing fitness (ln)>
-1.54

$$$$
>  <ORDERED RESIDUES>
CUAUAGCAAUAUUACGACAA

>  <self-splicing fitness (ln)>
-2.79

$$$$
